- target desc: UniProtKB P08173
- Sequence (P08173 whole entry): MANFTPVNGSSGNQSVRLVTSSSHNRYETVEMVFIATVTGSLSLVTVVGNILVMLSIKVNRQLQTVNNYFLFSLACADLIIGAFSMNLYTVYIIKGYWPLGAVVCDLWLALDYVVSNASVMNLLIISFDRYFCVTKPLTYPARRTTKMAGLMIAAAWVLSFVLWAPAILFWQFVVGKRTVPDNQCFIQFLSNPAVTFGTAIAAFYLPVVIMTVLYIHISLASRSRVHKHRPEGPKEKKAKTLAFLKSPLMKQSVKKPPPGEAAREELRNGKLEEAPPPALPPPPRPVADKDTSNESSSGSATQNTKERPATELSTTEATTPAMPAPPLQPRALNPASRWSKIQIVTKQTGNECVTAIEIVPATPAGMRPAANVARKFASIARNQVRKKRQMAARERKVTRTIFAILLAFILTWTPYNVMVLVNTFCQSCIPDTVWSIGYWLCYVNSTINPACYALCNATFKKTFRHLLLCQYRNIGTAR
- test description: human FLIPR-based M4 PAM assay (Ca2+ mobilization, CHO-K1 cells with human M4 receptor and Gαqi5)
- setup conditions: acetylcholine at 20% of maximum response, read-out: M4 PAM IP
Would you kindly list EC50 for each of these compounds?
Entry rule: numbers only, all in µM.

So what's the measured EC50 for this one? Cc1c(N2CCC(OCC3(C)CC3(F)F)CC2)nc2c(c1C)C(=O)N(CCO)C2 (centres unmarked) [Example 259A]
0.117

So what's the measured EC50 for this one? Cc1c(N2CC[C@@H](OCC3(C)CC3)[C@@H](F)C2)nc2c(c1C)C(=O)N(C)[C@@H]2CO [Example 341A]
0.009

So what's the measured EC50 for this one? CCc1cc2c(nc1N1CCC(Oc3ccc4cnn(C)c4c3)CC1)CN(CCO)C2=O [Example 268A]
0.169

So what's the measured EC50 for this one? "COc1ccc(OC2CCN(c3nc4c(cc3C)C(=O)N(CC(N)=O)C4)CC2)cn1"
0.101

So what's the measured EC50 for this one? "Cc1cc2c(nc1N1CCC(Oc3ccc4c(c3)COC4)CC1)[C@H](CO)N(C)C2=O"
0.623

So what's the measured EC50 for this one? CCN1C(=O)c2c(nc(N3CCC(Oc4ccc5c(c4)COC5)CC3)c(C)c2C)[C@H]1CO [Example 351A]
0.019

So what's the measured EC50 for this one? Cc1cc2c(nc1N1CCC(Oc3ccc(O[C@H](C)CO)nc3)CC1)CNC2=O (single isomer, unassigned) [Example 141A]
0.082

So what's the measured EC50 for this one? "Cc1ccc(OC2CCN(c3nc4c(cc3C)C(=O)NC4)CC2)cc1F"
0.167
